Parameter: Activity. Scope: all listed entries.
- assay_protocol: Toxicity against non-human primate hepatocytes infected with liver stage Plasmodium cynomolgi B incubated for 4 days from sporozoite addition
- Type: ADME, tissue-based, Hepatocyte
- experimental_conditions: primates, 96 h, time 4 day
experimental_endpoint: Activity (µM)

[
  {
    "compound": "O=C(c1nccs1)N1CC[C@@H](Nc2nccc(-n3cc(C4CC4)nc3-c3cccc(Cl)c3)n2)C1",
    "result_qualifier": ">",
    "obs_value": 20
  },
  {
    "compound": "COc1cc(C)c2c(Oc3cccc(C(F)(F)F)c3)c(OC)cc(NC(C)CCCN)c2n1 (centres undefined)",
    "result_qualifier": "=",
    "obs_value": 13.82
  },
  {
    "compound": "Cc1cn(-c2ccnc(N[C@@H]3CCN(C(=O)c4nccs4)C3)n2)c(-c2ccccc2)n1",
    "result_qualifier": ">",
    "obs_value": 20
  },
  {
    "compound": "CO[C@@H]1[C@@H](OC)[C@H](C)C(O)(CC(=O)O)O[C@H]1[C@H](C)[C@H]1O[C@@]2(CC[C@@](C)([C@H]3CC[C@@](C)([C@@H]4O[C@@H]([C@H]5OC(C)(O)[C@H](C)C[C@@H]5C)C[C@@H]4O[C@@H]4C[C@H](OC)[C@@H](OC)[C@H](C)O4)O3)O2)C[C@H](O)[C@H]1C (some centres undefined)",
    "result_qualifier": "=",
    "obs_value": 5.78
  }
]

* * *

Parameter: Activity. Scope: all listed entries.
- assay_protocol: Toxicity against non-human primate hepatocytes infected with liver stage Plasmodium cynomolgi B incubated for 4 days starting on day 4 post-sporozoite inoculation
- Type: ADME, tissue-based, Hepatocyte
- experimental_conditions: primates, 96 h, time 4 day

[
  {
    "molecule": "CO[C@@H]1[C@@H](OC)[C@H](C)C(O)(CC(=O)O)O[C@H]1[C@H](C)[C@H]1O[C@@]2(CC[C@@](C)([C@H]3CC[C@@](C)([C@@H]4O[C@@H]([C@H]5OC(C)(O)[C@H](C)C[C@@H]5C)C[C@@H]4O[C@@H]4C[C@H](OC)[C@@H](OC)[C@H](C)O4)O3)O2)C[C@H](O)[C@H]1C (some centres undefined)",
    "unit_tag": "µM",
    "result_qualifier": "=",
    "Activity": 11.91
  },
  {
    "molecule": "COc1cc(C)c2c(Oc3cccc(C(F)(F)F)c3)c(OC)cc(NC(C)CCCN)c2n1 (centres undefined) [TAFENOQUINE]",
    "unit_tag": "µM",
    "result_qualifier": "=",
    "Activity": 18.61
  },
  {
    "molecule": "Cc1cn(-c2ccnc(N[C@@H]3CCN(C(=O)c4nccs4)C3)n2)c(-c2ccccc2)n1",
    "unit_tag": "µM",
    "result_qualifier": ">",
    "Activity": 20
  },
  {
    "molecule": "O=C(c1nccs1)N1CC[C@@H](Nc2nccc(-n3cc(C4CC4)nc3-c3cccc(Cl)c3)n2)C1",
    "unit_tag": "µM",
    "result_qualifier": ">",
    "Activity": 20
  }
]

* * *

Parameter: IC50. Scope: all listed entries.
- System: Plasmodium cynomolgi
- assay_protocol: Antiplasmodial activity against liver stage Plasmodium cynomolgi B infected in non-human primate hepatocytes assessed as inhibition of liver schizonts development incubated for 4 days from sporozoite addition by prophylactic assay
- Format: functional, organism-based
- experimental_conditions: Hepatocyte, 96 h

[
  {
    "molecule": "CO[C@@H]1[C@@H](OC)[C@H](C)C(O)(CC(=O)O)O[C@H]1[C@H](C)[C@H]1O[C@@]2(CC[C@@](C)([C@H]3CC[C@@](C)([C@@H]4O[C@@H]([C@H]5OC(C)(O)[C@H](C)C[C@@H]5C)C[C@@H]4O[C@@H]4C[C@H](OC)[C@@H](OC)[C@H](C)O4)O3)O2)C[C@H](O)[C@H]1C (some centres undefined)",
    "unit_tag": "µM",
    "IC50": 0.01
  },
  {
    "molecule": "COc1cc(C)c2c(Oc3cccc(C(F)(F)F)c3)c(OC)cc(NC(C)CCCN)c2n1 (centres undefined) [TAFENOQUINE]",
    "unit_tag": "µM",
    "IC50": 0.19
  },
  {
    "molecule": "O=C(c1nccs1)N1CC[C@@H](Nc2nccc(-n3cc(C4CC4)nc3-c3cccc(Cl)c3)n2)C1",
    "unit_tag": "µM",
    "IC50": 0.93
  },
  {
    "molecule": "Cc1cn(-c2ccnc(N[C@@H]3CCN(C(=O)c4nccs4)C3)n2)c(-c2ccccc2)n1",
    "unit_tag": "µM",
    "IC50": 7.91
  }
]

* * *

Parameter: IC50. Scope: all listed entries.
- target_system: Cytochrome P450 3A4 (Homo sapiens, UniProt P08684)
- Sequence (P08684 whole entry): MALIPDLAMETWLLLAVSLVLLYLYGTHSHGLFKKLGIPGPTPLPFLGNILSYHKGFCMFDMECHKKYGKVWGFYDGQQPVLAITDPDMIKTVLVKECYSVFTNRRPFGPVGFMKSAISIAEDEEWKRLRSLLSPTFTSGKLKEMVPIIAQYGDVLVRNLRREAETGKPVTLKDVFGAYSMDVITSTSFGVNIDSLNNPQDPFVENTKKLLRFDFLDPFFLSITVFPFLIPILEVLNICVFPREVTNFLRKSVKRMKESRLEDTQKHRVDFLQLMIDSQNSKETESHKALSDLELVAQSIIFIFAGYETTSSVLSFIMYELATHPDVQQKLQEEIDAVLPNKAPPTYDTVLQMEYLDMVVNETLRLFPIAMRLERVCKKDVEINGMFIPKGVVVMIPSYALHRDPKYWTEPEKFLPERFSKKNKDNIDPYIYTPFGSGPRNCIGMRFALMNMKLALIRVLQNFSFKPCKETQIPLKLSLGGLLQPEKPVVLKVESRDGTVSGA

[
  {
    "input_smiles": "O=C(c1nccs1)N1CC[C@@H](Nc2nccc(-n3cc(C4CC4)nc3-c3cccc(Cl)c3)n2)C1",
    "IC50 (nM)": 190
  },
  {
    "input_smiles": "O=C(c1nccs1)N1CC[C@@H](Nc2nccc(-n3cc(C4CC4)nc3-c3ccccc3)n2)C1",
    "IC50 (nM)": 290
  }
]

* * *

- target_system: Cytochrome P450 2D6 (Homo sapiens)
- Sequence (P10635 whole entry): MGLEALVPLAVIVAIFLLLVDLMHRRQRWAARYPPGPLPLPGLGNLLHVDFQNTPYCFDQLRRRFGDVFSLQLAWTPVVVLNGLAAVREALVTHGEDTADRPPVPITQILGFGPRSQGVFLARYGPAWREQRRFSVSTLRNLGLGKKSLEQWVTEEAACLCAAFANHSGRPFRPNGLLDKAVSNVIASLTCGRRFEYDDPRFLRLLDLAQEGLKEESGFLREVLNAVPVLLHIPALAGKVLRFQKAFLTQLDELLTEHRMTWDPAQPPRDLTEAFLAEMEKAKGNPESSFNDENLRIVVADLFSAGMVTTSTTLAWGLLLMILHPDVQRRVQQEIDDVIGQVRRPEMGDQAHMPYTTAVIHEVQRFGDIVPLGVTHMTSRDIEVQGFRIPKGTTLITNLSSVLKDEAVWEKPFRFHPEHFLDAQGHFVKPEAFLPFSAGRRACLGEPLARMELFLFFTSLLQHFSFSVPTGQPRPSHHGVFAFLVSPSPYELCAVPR

[
  {
    "input_smiles": "O=C(c1nccs1)N1CC[C@@H](Nc2nccc(-n3cc(C4CC4)nc3-c3cccc(Cl)c3)n2)C1",
    "IC50": "> 10 µM"
  },
  {
    "input_smiles": "O=C(c1nccs1)N1CC[C@@H](Nc2nccc(-n3cc(C4CC4)nc3-c3ccccc3)n2)C1",
    "IC50": "> 10 µM"
  }
]

* * *

Parameter: inhibition. Scope: all listed entries.
- Test system: Plasmodium falciparum
- assay_protocol: Inhibition of Plasmodium falciparum PKG using FAM-labeled PKAtide or IP3R-derived peptide as a substrate at 1 uM preincubated for 15 mins followed by substrate addition and incubated for 60 mins by IMAP assay relative to control
- experimental_conditions: time 75.0 min

[
  {
    "input_smiles": "Cc1cn(-c2ccnc(NC3CCN(C(=O)c4nccs4)CC3)n2)c(-c2ccccc2)n1",
    "unit_tag": "%",
    "inhibition": 5
  },
  {
    "input_smiles": "Cc1cn(-c2ccnc(N[C@H]3CCN(C(=O)c4nccs4)C3)n2)c(-c2ccccc2)n1",
    "unit_tag": "%",
    "inhibition": 4
  },
  {
    "input_smiles": "Cc1cn(-c2ccnc(NCC3(NC(=O)c4nccs4)CC3)n2)c(-c2ccccc2)n1",
    "unit_tag": "%",
    "inhibition": 6
  }
]
